Data provenance is ChEMBL document CHEMBL3091398.

# TEST DETAILS: Inhibition of HCV genotype 1b NS5B delta21 polymerase
# Parameters: species or system Hepatitis C virus subtype 1b
pIC50: −log10 of the molar value.
RECORDED ENDPOINT: pIC50

Below, 4 molecules whose answers are already recorded.
>>> reported_result("CC(C)N(c1cc(Oc2ccccc2C(F)(F)F)ccc1C(=O)O)C(=O)[C@H]1CC[C@H](C)CC1")
5.89
>>> reported_result("O=C(O)c1ccc(Oc2ccc(C(=O)O)c(NS(=O)(=O)c3ccc(Br)s3)c2)cc1")
5.66
>>> reported_result("O=C(O)c1ccc(Oc2ccccc2)cc1NS(=O)(=O)c1ccc(Br)s1")
6.21
>>> reported_result("CC(C)N(c1ccc(Oc2cccc(C(F)(F)F)c2)cc1C(=O)O)C(=O)[C@H]1CC[C@H](C)CC1")
6.33

I: CC(=O)Nc1ccc(Oc2ccc(C(=O)O)c(NS(=O)(=O)c3ccc(Br)s3)c2)cc1
II: Cc1ccc(S(=O)(=O)Nc2cc(Oc3ccccc3)ccc2C(=O)O)cc1
Please choose the item with the lower pIC50 value from this pair: I and II Returns: label corresponding to the selected item.
I
(I: 5.54, II: 6.80)

* * *

Collected Papp A→B values appear next to each entry.
# TEST DETAILS: Permeability across apical to basolateral side in human Caco2 cells
# Type: ADME, cell-based
# CONDITION DESCRIPTION: Caco-2, read-out: permeability
Answer with a number only, understood to be in ×10⁻⁶ cm/s.

>>> reported_result("CC(C)N(c1ccc(Oc2ccccc2C(F)(F)F)cc1C(=O)O)C(=O)[C@H]1CC[C@H](C)CC1")
15

Turning to the following compound.
Output measured Papp A→B for this item: Cc1ccc(S(=O)(=O)Nc2ccc(Oc3ccccc3C(F)(F)F)cc2C(=O)O)cc1
3.6

* * *

# Tested on: Hepatitis C virus
# TEST DETAILS: Antiviral activity against HCV genotype 1b by cell-based luciferase reporter gene assay
# Type: functional, organism-based, Hepacivirus hominis
pEC50: −log10 of the molar value.
Collected pEC50 values appear next to each entry.

Below, 3 compounds whose answers are already recorded.
>>> reported_result("Cc1ccc(Oc2ccc(NS(=O)(=O)c3ccc(C)cc3)c(C(=O)O)c2)cc1")
"< 4.52"
>>> reported_result("CC[C@H]1CC[C@H](C(=O)N(c2cc(Oc3ccccc3)ccc2C(=O)O)C(C)C)CC1")
"< 4.40"
>>> reported_result("O=C(O)c1ccc(Oc2ccccc2C(F)(F)F)cc1NS(=O)(=O)c1ccc(Br)s1")
"< 4.52"

Please indicate recorded pEC50 of Cc1ccc(S(=O)(=O)Nc2ccc(Oc3ccccc3C)cc2C(=O)O)cc1 measured with Hepatitis C virus.
< 4.52

Please indicate recorded pEC50 of CC(C)N(c1ccc(Oc2ccccc2)cc1C(=O)O)C(=O)[C@H]1CC[C@H](C(F)(F)F)CC1 measured with Hepatitis C virus.
4.80

Please indicate recorded pEC50 of Cc1ccc(S(=O)(=O)Nc2ccc(Oc3cccc(C(=O)O)c3)cc2C(=O)O)cc1 measured with Hepatitis C virus.
< 4.52

* * *

# TEST DETAILS: Inhibition of HCV genotype 1b NS5B delta21 polymerase
# Parameters: species or system Hepatitis C virus subtype 1b
RECORDED ENDPOINT: IC50 (µM)

Below, 2 molecules whose answers are already recorded.
>>> reported_result("CC(C)N(c1ccc(Oc2ccccc2Br)cc1C(=O)O)C(=O)[C@H]1CC[C@H](C)CC1")
0.45
>>> reported_result("Cc1ccc(S(=O)(=O)Nc2ccc(Oc3ccc(C(=O)O)cc3)cc2C(=O)O)cc1")
0.085

P: Cc1ccc(S(=O)(=O)Nc2ccc(Oc3ccccc3)cc2C(=O)O)cc1
Q: Cc1ccc(S(=O)(=O)Nc2ccc(Oc3cccc(C(=O)O)c3)cc2C(=O)O)cc1
R: CC[C@H]1CC[C@H](C(=O)N(c2cc(Oc3ccccc3)ccc2C(=O)O)C(C)C)CC1
Which order do these items take when sorted by rising IC50? List them. Quick reminder: the answer is the labels in the order asked.
P, Q, R

P: CC(C)N(c1ccc(Oc2ccccc2C(F)F)cc1C(=O)O)C(=O)[C@H]1CC[C@H](C)CC1
Q: Cc1ccc(Oc2ccc(C(=O)O)c(NS(=O)(=O)c3ccc(Br)s3)c2)cc1
Compare P and Q by numeric IC50 and name the larger one. Returns: label corresponding to the selected item.
Q

1: CC(C)N(c1ccc(Oc2ccccc2)cc1C(=O)O)C(=O)[C@H]1CC[C@H](C(F)(F)F)CC1
2: CC(C)N(c1ccc(Oc2ncccc2C(F)(F)F)cc1C(=O)O)C(=O)[C@H]1CC[C@H](C)CC1
3: O=C(O)c1cccc(Oc2ccc(C(=O)O)c(NS(=O)(=O)c3ccc(Br)s3)c2)c1
4: O=C(O)c1ccc(Oc2ccccc2C(F)(F)F)cc1NS(=O)(=O)c1ccc(Br)s1
Which order do these items take when sorted by rising IC50? List them. Quick reminder: the answer is the labels in the order asked.
2, 3, 1, 4

* * *

# System: Hepatitis C virus
# TEST DETAILS: Antiviral activity against HCV genotype 1b by cell-based luciferase reporter gene assay
# Type: functional, organism-based, Hepacivirus hominis
RECORDED ENDPOINT: EC50 (µM)

A: CC(=O)Nc1ccc(Oc2ccc(NS(=O)(=O)c3ccc(C)cc3)c(C(=O)O)c2)cc1
B: CC(C)N(c1ccc(Oc2ccccc2C(F)F)cc1C(=O)O)C(=O)[C@H]1CC[C@H](C)CC1
Please choose the item with the lower EC50 value from this pair: A and B Returns: label corresponding to the selected item.
B
(B: 1.1 µM, A: 30 µM)

* * *

# Test system: Hepatitis C virus
# TEST DETAILS: Antiviral activity against HCV genotype 1b by cell-based luciferase reporter gene assay
# Format: functional, organism-based, Hepacivirus hominis
pEC50: −log10 of the molar value.
Collected pEC50 values appear next to each entry.

Output measured pEC50 for this item: O=C(O)c1cc(Oc2ccccc2)ccc1NS(=O)(=O)c1ccc(Br)cc1F
< 4.52

Output measured pEC50 for this item: CC(C)N(c1cc(OC2CCCC2)ccc1C(=O)O)C(=O)[C@H]1CC[C@H](C)CC1
< 4.30

Output measured pEC50 for this item: Cc1ccc(S(=O)(=O)Nc2ccc(Oc3cccc(C)c3)cc2C(=O)O)cc1
< 4.52
